- experimentalTarget: T1, soluble human CD3 epsilon chain (human, UniProt P07766 23-126)
- T1 construct: also called CD3ε
- T1 sequence (P07766 23-126 limits assumed): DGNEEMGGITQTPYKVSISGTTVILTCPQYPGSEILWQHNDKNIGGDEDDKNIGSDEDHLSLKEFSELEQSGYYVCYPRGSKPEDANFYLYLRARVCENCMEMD
- protocolNotes: SPR
Reported Kd is given for each of the following binders.
reportedEndpoint: Kd (nM)

[
  {
    "binder": "TR01H035-E22Hh/none-Hi-Kn010G3/L0000-k0 (antibody, V domains shown, one-arm) VH: QVQLVESGGGLVQPGRSLRLSCAASGFTFSNAWMHWVRQAPGKGLEWVAQIKGKSQNYATYYAESVKGRFTISRADSKNSIYLQMNSLKTEDTAVYYCRYVHYSASYGVDYWGQGTTVTVSS VL: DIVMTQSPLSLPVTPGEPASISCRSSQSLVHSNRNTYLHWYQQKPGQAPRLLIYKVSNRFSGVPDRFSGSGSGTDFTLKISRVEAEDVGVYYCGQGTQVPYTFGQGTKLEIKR",
    "resultNumber": 84.9
  },
  {
    "binder": "TR01H040-E22Hh/none-Hi-Kn010G3/L0209-k0 (antibody, V domains shown, one-arm) VH: QVQLVESGGGLVQPGRSLRLSCAASGFTFSNAWMHWVRQAPGKGLEWVAQIKDKSQNYATYYAESVKGRFTISRADSKNSIYLQMNSLKTEDTAVYYCRYVHYSASYGVDAWGQGTTVTVSS VL: DIVMTQSPLSLPVTPGEPASISCRSSQSPVHSNRNTYIHWYQQKPGQAPRLLIYKVSNRFSGVPDRFSGSGSGTDFTLKISRVEAEDVGVYYCYQGTQVPYTFGQGTKLEIKR",
    "resultNumber": 4.25
  },
  {
    "binder": "TR01H040-E22Hh/none-Hi-Kn010G3/L0242-k0 (antibody, V domains shown, one-arm) VH: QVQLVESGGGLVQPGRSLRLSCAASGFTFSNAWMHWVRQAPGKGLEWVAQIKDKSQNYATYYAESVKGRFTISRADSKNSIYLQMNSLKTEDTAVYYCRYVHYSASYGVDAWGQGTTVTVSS VL: DIVMTQSPLSLPVTPGEPASISCRSSESPVHSNRNTYIHWYQQKPGQAPRLLIYKVSNRFSGVPDRFSGSGSGTDFTLKISRVEAEDVGVYYCYQGTQVPYTFGQGTKLEIK",
    "resultNumber": 3.58
  }
]
